- system-name: human calcium receptor (Homo sapiens, UniProt P41180, R990G)
- Construct: expressed in transfected cells; host or cells: HEK 293
- Sequence (P41180 20-1078 R990G): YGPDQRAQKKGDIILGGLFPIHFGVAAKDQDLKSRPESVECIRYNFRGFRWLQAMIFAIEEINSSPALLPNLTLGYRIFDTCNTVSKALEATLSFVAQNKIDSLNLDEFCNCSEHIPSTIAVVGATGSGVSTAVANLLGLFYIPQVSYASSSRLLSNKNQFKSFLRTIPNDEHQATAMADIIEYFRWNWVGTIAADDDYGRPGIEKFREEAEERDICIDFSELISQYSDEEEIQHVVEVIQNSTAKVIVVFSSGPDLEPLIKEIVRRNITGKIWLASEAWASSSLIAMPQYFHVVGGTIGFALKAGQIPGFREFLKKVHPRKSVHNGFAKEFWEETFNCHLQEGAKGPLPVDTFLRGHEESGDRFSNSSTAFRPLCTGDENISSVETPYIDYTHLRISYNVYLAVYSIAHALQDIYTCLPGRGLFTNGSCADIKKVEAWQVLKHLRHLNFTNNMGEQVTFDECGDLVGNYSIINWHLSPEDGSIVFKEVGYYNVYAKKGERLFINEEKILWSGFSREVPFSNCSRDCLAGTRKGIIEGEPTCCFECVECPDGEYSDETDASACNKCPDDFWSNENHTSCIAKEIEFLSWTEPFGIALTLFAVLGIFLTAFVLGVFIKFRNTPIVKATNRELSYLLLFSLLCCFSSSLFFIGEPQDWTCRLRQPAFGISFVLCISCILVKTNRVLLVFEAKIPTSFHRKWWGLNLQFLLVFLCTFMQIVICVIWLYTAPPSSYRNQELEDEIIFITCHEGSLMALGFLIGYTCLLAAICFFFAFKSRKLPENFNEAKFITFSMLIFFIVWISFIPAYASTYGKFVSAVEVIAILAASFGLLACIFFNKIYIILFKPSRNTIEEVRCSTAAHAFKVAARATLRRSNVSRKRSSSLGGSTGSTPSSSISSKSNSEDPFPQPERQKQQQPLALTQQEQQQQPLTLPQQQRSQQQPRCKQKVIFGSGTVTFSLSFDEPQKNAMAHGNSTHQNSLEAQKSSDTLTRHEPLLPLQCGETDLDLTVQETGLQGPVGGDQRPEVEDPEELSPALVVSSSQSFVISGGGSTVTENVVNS
- procedure-details: increases in [Ca^2+ ]i in HEK-293 cells expressing the human calcium receptor (fura-2 loaded HEK 293/pHuPCaR4.0 cells), % activity
- Format: cell-based
- details: 330 ng/mL
Where a name gives a salt, the structure may show the parent alone.

compound | % activity [%]
COc1cccc([C@@H](C)NCCCc2ccc(C(C)C)cc2)c1 [Compound 12Y] | 80
COc1ccc(CN[C@H](C)c2cccc3ccccc23)cc1C [Compound 16Q] | 110
CC(NC(C)c1cccc2ccccc12)c1ccc(Cl)c(Cl)c1 (centres unmarked) [Compound 17J] | 118
CC(C)Cc1ccc(C(C)CNC(C)c2cccc3ccccc23)cc1 (centres unmarked) [Compound 13Z] | 54
C[C@@H](NCc1ccc(C(C)(C)c2ccccc2)cc1)c1cccc2ccccc12 [Compound 12N] | 106
COc1cccc(C(C)NCCC(C)c2ccc(Cl)cc2)c1 (centres unmarked) | 65
COc1ccc(CNC(C)c2cccc(C(F)(F)F)c2)cc1C (centres unmarked) [Compound 24C] | 113
CC(NC(C)c1cc2ccccc2c2ccccc12)c1cccc2ccccc12 (centres unmarked) [10S/10T] | 86
C[C@@H](NCc1ccc(OC(F)(F)F)cc1)c1cccc2ccccc12 [Compound 23F] | 82
COc1cccc([C@@H](C)NC[C@H](C)C=Cc2ccccc2)c1 [Compound 25H] | 107
CC(NCc1ccc2ccccc2c1)c1ccccc1 (centres unmarked) | 47
CC(NCCCc1ccccc1Cl)c1cccc(Cl)c1 (centres unmarked) [Compound 24O] | 114
COc1cccc([C@@H](C)NCCc2ccccc2)c1 [Compound 25Q] | 95
CC(NC(C)c1cccc2ccccc12)c1ccccc1 (centres unmarked) [Compound 14P] | 103
COc1cccc([C@@H](C)NCCCc2ccccc2OC)c1 [Compound 8U, hydrochloride] | 129
CC(COc1ccccc1)NC(C)c1ccccc1 (centres unmarked) | 58
CCOc1cccc([C@@H](C)NCCCc2ccccc2)c1 | 94
COc1ccc(CN[C@H](C)c2cccc3ccccc23)cc1Cl.Cl [Compound 17M] | 115
COc1cccc(C(C)NC(C)c2cccc(OC)c2)c1 (centres unmarked) [Compound 16O] | 81
Cc1ccc(CN[C@H](C)c2cccc3ccccc23)cc1C [Compound 16V] | 114

Reference source for all entries: patent US6211244A
